For each record, write down the corresponding EC50 at 24 h.
assaySummary: Toxicity in human BEAS2B cells assessed as reduction in cell viability incubated for 24 hrs by resazurin dye based assay
testParameters: BEAS-2B cells

# EC50 at 24 h lookup, item CCCCCC(O)(Cn1cncn1)c1ccccc1Cl (configuration not stated)
> 31.3 µg/mL

Find the recorded EC50 at 24 h belonging to CCCCCC(O)(Cn1cncn1)c1ccc(F)cc1F (configuration not stated) and report it.
> 31.3 µg/mL

Form field: reported EC50 at 24 h of CCCCCCC(O)(Cn1cncn1)c1ccc(Cl)cc1Cl (configuration not stated)
28 µg/mL

Any idea what EC50 at 24 h was measured for CCCCC(O)(Cn1cncn1)c1ccc(Cl)cc1Cl (configuration not stated) [HEXACONAZOLE] ?
> 31.3 µg/mL

Dear colleague, I am looking for the recorded EC50 at 24 h of the following molecule: CCCCCCCCC(O)(Cn1cncn1)c1ccc(F)cc1F (configuration not stated)
13 µg/mL

I have this molecule here, CCCCCCC(O)(Cn1cncn1)c1ccc(F)cc1F (configuration not stated) , and I need its recorded EC50 at 24 h.
> 31.3 µg/mL

I would be grateful if you could share the reported EC50 at 24 h for CCCCCC(O)(Cn1cncn1)c1ccc(F)cc1 (configuration not stated) .
33 µg/mL

###

Exercise: for every item that follows, state its recorded selectivity ratio.
assaySummary: Selectivity index, ratio of EC50 for toxicity in human BEAS2B cells to MIC for antifungal activity against Candida parapsilosis ATCC 22019
testParameters: BEAS-2B cells

Fill blank: measured selectivity ratio of the compound CCCCC(O)(Cn1cncn1)c1ccc(F)cc1F (stereo not drawn) is ____.
1200

I'd like to know its selectivity ratio. The compound in question is CCCCCCC(O)(Cn1cncn1)c1ccccc1Cl (stereo not drawn)
261

Find the recorded selectivity ratio belonging to CCCC(O)(Cn1cncn1)c1ccc(Cl)cc1Cl (stereo not drawn) and report it.
1040

Using the record for CCCCCCC(O)(Cn1cncn1)c1ccc(Cl)cc1 (stereo not drawn) , report its selectivity ratio.
1

Recorded selectivity ratio for CCCCCC(O)(Cn1cncn1)c1ccc(Cl)cc1Cl (stereo not drawn) , please?
1040

What does the record list as selectivity ratio for CCCCC(O)(Cn1cncn1)c1ccc(Cl)cc1Cl (stereo not drawn) [HEXACONAZOLE] ?
1040

Would you mind telling me what selectivity ratio value was observed for CCCCCCC(O)(Cn1cncn1)c1ccc(Cl)cc1Cl (stereo not drawn) ?
933

Quick one: selectivity ratio for CCCCCCC(O)(Cn1cncn1)c1ccc(F)cc1 (stereo not drawn) ?
65

Dear colleague, I am looking for the recorded selectivity ratio of the following compound: CCCCCCCCC(O)(Cn1cncn1)c1ccc(F)cc1F (stereo not drawn)
217

Find the recorded selectivity ratio belonging to CCCCCC(O)(Cn1cncn1)c1ccccc1Cl (stereo not drawn) and report it.
261

// lookup selectivity ratio for CCCCCC(O)(Cn1cncn1)c1ccc(F)cc1F (stereo not drawn)
1040

Which selectivity ratio value is on record for CCCCCCC(O)(Cn1cncn1)c1ccccc1F (stereo not drawn) ?
261

Quick check: selectivity ratio of CCCCCC(O)(Cn1cncn1)c1ccccc1F (stereo not drawn) ?
261

###

assaySummary: Selectivity index, ratio of EC50 for toxicity in human BEAS2B cells to MIC50 for antifungal activity against ITC and FLC-resistant Candida albicans ATCC MYA-90819
Type: cell-based
testParameters: BEAS-2B cells, read-out: Selectivity Index
parameter: selectivity ratio
Please state the value as a number alone, without comment.

If you can, please state the reported selectivity ratio value of CC[C@@H]([C@H](C)O)n1ncn(-c2ccc(N3CCN(c4ccc(OC[C@@H]5CO[C@@](Cn6cncn6)(c6ccc(F)cc6F)C5)cc4)CC3)cc2)c1=O [POSACONAZOLE] .
1

Entry CCCC(O)(Cn1cncn1)c1ccc(Cl)cc1Cl (centres undefined) has what selectivity ratio?
8

Record request: selectivity ratio value, item CCCCC(O)(Cn1cncn1)c1ccc(Cl)cc1Cl (centres undefined) [HEXACONAZOLE]
16

Given the entry CCCCCC(O)(Cn1cncn1)c1ccccc1Cl (centres undefined) , report its measured selectivity ratio.
65

###

assaySummary: Selectivity index, ratio of EC50 for toxicity in human A549 cells to MIC50 for antifungal activity against ITC and FLC-susceptible Candida albicans ATCC MYA-2876
Type: cell-based
testParameters: read-out: Selectivity Index
true (1) if selectivity ratio is below 6. false (0) if not; exact matches included in false (0).

Is selectivity ratio strictly under 6 for the entry CCCCCC(O)(Cn1cncn1)c1ccccc1Cl (stereo unspecified) ?
false (0)

API: query returns whether the compound falls strictly under 6 in selectivity ratio. Query: CCCCCC(O)(Cn1cncn1)c1ccc(Cl)cc1 (stereo unspecified)
true (1)

Would you kindly verify if selectivity ratio of CCCCCCC(O)(Cn1cncn1)c1ccc(F)cc1F (stereo unspecified) is strictly less than 6?
false (0)

Find out if reported selectivity ratio for CCCCC(O)(Cn1cncn1)c1ccc(Cl)cc1Cl (stereo unspecified) is less than 6
false (0)

Lab note: confirm whether the reported selectivity ratio for this compound is below 6, equality not counting. compound: CCCCCC(O)(Cn1cncn1)c1ccc(F)cc1 (stereo unspecified)
true (1)

###

Would you mind telling me the reported MIC50 of each entry?
System: Candida albicans
assaySummary: Antifungal activity against ITC and FLC-susceptible Candida albicans ATCC MYA-2876 incubated for 48 hrs by modified CLSI M27-A3 protocol based method
Assay type: functional
testParameters: ATCC MYA-2876, 48 h
Supply the numeric figure in µM, leaving out any unit text.

Given CCCCCC(O)(Cn1cncn1)c1ccc(Cl)cc1Cl (stereo not drawn) , state its recorded MIC50.
3

Which MIC50 reading was recorded for the compound CCCC(O)(Cn1cncn1)c1ccc(Cl)cc1Cl (stereo not drawn) ?
6.5

So what does the record say about MIC50 for C[C@@H](c1ncncc1F)[C@](O)(Cn1cncn1)c1ccc(F)cc1F [VORICONAZOLE] ?
5.6

Which value of MIC50 has been reported for CCCCCC(O)(Cn1cncn1)c1ccc(F)cc1F (stereo not drawn) in the records?
26.4

For CCCCCCCCCCC(O)(Cn1cncn1)c1ccc(F)cc1F (stereo not drawn) , what is its reported MIC50?
21.3

// query MIC50 value for entry CCCCCCC(O)(Cn1cncn1)c1ccc(F)cc1F (stereo not drawn)
6.3

Consider the compound shown here: CCCCCCC(O)(Cn1cncn1)c1cccc(F)c1 (stereo not drawn) What is its recorded MIC50?
6.7

###

assaySummary: Selectivity index, ratio of EC50 for toxicity in human A549 cells to MIC for antifungal activity against Candida parapsilosis ATCC 22019
parameter: selectivity ratio
Write no unit; give the number alone.

Which selectivity ratio value is on record for CCCCCCC(O)(Cn1cncn1)c1ccccc1Cl (stereo not drawn) ?
261

Which measured selectivity ratio value corresponds to CCCC(O)(Cn1cncn1)c1ccc(Cl)cc1Cl (stereo not drawn) ?
1040

Which measured selectivity ratio value corresponds to CCCCCC(O)(Cn1cncn1)c1ccccc1F (stereo not drawn) ?
308

Record request: selectivity ratio value, item CCCCCCC(O)(Cn1cncn1)c1ccc(Cl)cc1 (stereo not drawn)
1

Which selectivity ratio reading was recorded for the compound CCCCCC(O)(Cn1cncn1)c1ccc(Cl)cc1 (stereo not drawn) ?
522

What measured selectivity ratio goes with CCCCCCC(O)(Cn1cncn1)c1ccc(Cl)cc1Cl (stereo not drawn) ?
667

# selectivity ratio lookup, item CCCCCCCCC(O)(Cn1cncn1)c1ccc(F)cc1F (stereo not drawn)
200

Look up selectivity ratio for this compound: CCCCCC(O)(Cn1cncn1)c1ccccc1Cl (stereo not drawn)
261

Which measured selectivity ratio value corresponds to CCCCCCC(O)(Cn1cncn1)c1ccc(F)cc1F (stereo not drawn) ?
1170

Tell me the measured selectivity ratio of CCCCCCC(O)(Cn1cncn1)c1ccccc1F (stereo not drawn) , please.
261

Query (compound): CCCCCCC(O)(Cn1cncn1)c1ccc(F)cc1 (stereo not drawn) ; field requested: selectivity ratio
65

Endpoint output: selectivity ratio of CCCCC(O)(Cn1cncn1)c1ccc(F)cc1F (stereo not drawn) . Value?
1040

Field request: selectivity ratio | item: CCCCCC(O)(Cn1cncn1)c1ccc(Cl)cc1Cl (stereo not drawn)
1100

###

assaySummary: Selectivity index, ratio of EC50 for toxicity in human A549 cells to MIC50 for antifungal activity against ITC and FLC-resistant Candida albicans ATCC MYA-1003
Format: cell-based
testParameters: read-out: Selectivity Index
Lab note - cut at 20 for selectivity ratio: y if strictly below, n if not.

# check: selectivity ratio < 20 for CCCCCCC(O)(Cn1cncn1)c1ccccc1F (stereo not drawn)
y

selectivity ratio under 20? Item: CCCCCCC(O)(Cn1cncn1)c1ccccc1Cl (stereo not drawn)
y

Confirm or reject: selectivity ratio of CCCCCC(O)(Cn1cncn1)c1ccccc1Cl (stereo not drawn) lies strictly below 20
y

Here's an entry: CCCC(O)(Cn1cncn1)c1ccc(Cl)cc1Cl (stereo not drawn) . Is its selectivity ratio below 20?
n

Given CCCCCCC(O)(Cn1cncn1)c1ccc(Cl)cc1 (stereo not drawn) , is recorded selectivity ratio strictly lower than 20?
y

selectivity ratio strictly < 20 for this molecule? CCCCCCC(O)(Cn1cncn1)c1ccc(F)cc1 (stereo not drawn)
y

Decide: selectivity ratio of CCCCCC(O)(Cn1cncn1)c1ccc(F)cc1F (stereo not drawn) strictly below 20?
y

Bench note: check whether CCCCCCC(O)(Cn1cncn1)c1ccc(Cl)cc1Cl (stereo not drawn) shows selectivity ratio below 20
n

Confirm or reject: selectivity ratio of CCCCCC(O)(Cn1cncn1)c1ccc(Cl)cc1Cl (stereo not drawn) lies strictly below 20
n

Please let me know if CCCCCCCCC(O)(Cn1cncn1)c1ccc(F)cc1F (stereo not drawn) shows selectivity ratio below 20.
y

Record CCCCC(O)(Cn1cncn1)c1ccc(F)cc1F (stereo not drawn) : is its selectivity ratio strictly below 20?
y

Lab note: confirm whether the reported selectivity ratio for this molecule is below 20, equality not counting. molecule: CCCCCC(O)(Cn1cncn1)c1ccc(Cl)cc1 (stereo not drawn)
y

Lab note: confirm whether the reported selectivity ratio for this molecule is below 20, equality not counting. molecule: CCCCCCC(O)(Cn1cncn1)c1ccc(F)cc1F (stereo not drawn)
y
